assay: Quantitative highthroughput screen to assess conditional lethalithy of NOMO1 cells grown in RPMI1640 with untreated serum (RPMI+s) (AID 1963876); settings: NOMO1 AML cells in RPMI+serum, CellTiter-Glo viability, 48 h; series mostly up to 45.8 µM; note: nearly all actives have a fitted effect of over 35% in size
Inconclusive results are not listed. Activity calls are given as the source filed them. Calls come from the whole dose curve; as a rule, active = well fitted cell-killing curve with a large enough effect; inconclusive = small, poorly fitted or top-dose-only effect; inactive = flat fitted curve, though single readings scatter.
Outcome codes: active, inactive

| molecule | discrete-label |
| --- | --- |
| COc1cc(N2CCC(C(N)=O)CC2)ccc1Nc1nc(N)c(Cl)c(Nc2ccccc2S(=O)(=O)C(C)C)n1 | active |
| CCOC(=O)O[C@]1(C(=O)OCCl)CC[C@@H]2[C@H]3CCC4=CC(=O)C=C[C@]4(C)[C@@H]3[C@@H](O)C[C@@]21C | inactive |
| CN(C)c1cc(NC(=O)CNC(C)(C)C)c(O)c2c1C[C@@H]1C[C@H]3[C@H](N(C)C)C(=O)C(C(N)=O)=C(O)[C@@]3(O)C(=O)C1=C2O | inactive |
| C[C@H](CCC(=O)O)[C@H]1CCC2C3C[C@H](O)[C@@H]4C[C@H](O)CC[C@]4(C)C3CC[C@@]21C (stereo not given in full) | inactive |
| NCCCC(N)(C(=O)O)C(F)F (stereo not given) | inactive |
| CN(c1nccc(=O)[nH]1)C1CCN(c2nc3ccccc3n2Cc2ccc(F)cc2)CC1 | inactive |
| CNC1CCC(N(Cc2cccc(-c3ccncc3)c2)C(=O)c2sc3c(F)ccc(F)c3c2Cl)CC1 (stereo not given) | inactive |
| C[C@@H](c1ncncc1F)[C@](O)(Cn1cncn1)c1ccc(F)cc1F | inactive |
| CS(=O)(=O)c1ccc([C@@H](O)[C@@H](CO)NC(=O)C(Cl)Cl)cc1 | inactive |
| COc1cc2ncnc(Nc3ccc(F)c(Cl)c3)c2cc1OCCCN1CCOCC1 | inactive |
| Cc1cc(Nc2nc(N[C@@H](C)c3ncc(F)cn3)ncc2Cl)n[nH]1 | active |
| N#Cc1c(C2CCNCC2)cc(-c2c(O)cccc2OCC2CC2)nc1N | inactive |
| CCOc1ccccc1OCCNC(C)Cc1ccc(OC)c(S(N)(=O)=O)c1 (stereo not given) | inactive |
| C[C@H](NC(=O)c1sccc1OCc1ccc(Cl)cc1)c1ccccc1 | inactive |
| c1ccc2[nH]c(-c3cscn3)nc2c1 | inactive |
| Cc1cccc(-c2[nH]c(C(C)(C)C)nc2-c2ccc3nccnc3c2)n1 | inactive |
| CN(C)CCCC1(c2ccc(F)cc2)OCc2cc(C#N)ccc21 (stereo not given) | inactive |
| CC(C)c1onc(-c2c(Cl)cccc2Cl)c1COc1ccc(C=Cc2cccc(C(=O)O)c2)c(Cl)c1 | inactive |
| O=c1ccc2ccc(O)c(O)c2o1 | inactive |
| COc1c2occc2cc2ccc(=O)oc12 | inactive |

---

experiment: Viability qHTS for spleen associated tyrosine kinase inhibitor (SYKi) drug resistant MV4-11 cells (AID 1963824); details: SYKi-resistant MV4-11 viability, CellTiter-Glo, 72 h; series mostly up to 45 µM; note: nearly all actives have a fitted effect of over 35% in size
Results filed as inconclusive are left out. Active and inactive are the calls of the source. Calls follow the shape of the dose curve; as a rule, active = well fitted cell-killing curve with a large enough effect; inconclusive = small, poorly fitted or top-dose-only effect, or effect the other way; inactive = no such curve, though single readings can be large or run the other way.
Outcome codes: t = active, f = inactive

| compound | discrete-label |
| --- | --- |
| CC(=O)O[C@@](C)(C(=O)/C=C/C(C)(C)O)[C@H]1[C@H](O)C[C@@]2(C)[C@@H]3CC=C4[C@@H](C=C(O)C(=O)C4(C)C)[C@]3(C)C(=O)C[C@]12C | t |
| CCCCCCCOc1cc2c(cc1/C(C)=C/c1ccc(C(=O)O)cc1)C(C)(C)CCS2(=O)=O | t |
| N#Cc1ccc2ncnc(NCCc3ccccc3)c2c1 | t |
| COC1CC/C=C(\C)C(=O)Nc2cc(O)cc(c2)CC(C)CC(OC)C(O)C(C)/C=C(\C)C1OC(N)=O (centres undefined) | t |
| C=C(C(=O)O)C1CCC(C)C2CCC(=O)OC2(C)C1 (centres undefined) | t |
| CCCCC/C=C\C/C=C\CCCCCCCC(=O)NC(C)c1ccccc1 (centres undefined) | t |
| COc1ccc(C(OC2OC(CO)C(O)C(O)C2O)C(C)O)cc1 (centres undefined) | f |
| CC(=O)c1c(C)cccc1O[C@@H]1O[C@H](CO)[C@@H](O)[C@H](O)[C@H]1O | f |
| O=C(O)CCc1nc(-c2ccccc2)c(-c2ccccc2)o1 | f |

// provenance: PubChem BioAssay (NCATS)
